# Study target: UniProt:Q9BY41
# Sequence (Q9BY41 1-377): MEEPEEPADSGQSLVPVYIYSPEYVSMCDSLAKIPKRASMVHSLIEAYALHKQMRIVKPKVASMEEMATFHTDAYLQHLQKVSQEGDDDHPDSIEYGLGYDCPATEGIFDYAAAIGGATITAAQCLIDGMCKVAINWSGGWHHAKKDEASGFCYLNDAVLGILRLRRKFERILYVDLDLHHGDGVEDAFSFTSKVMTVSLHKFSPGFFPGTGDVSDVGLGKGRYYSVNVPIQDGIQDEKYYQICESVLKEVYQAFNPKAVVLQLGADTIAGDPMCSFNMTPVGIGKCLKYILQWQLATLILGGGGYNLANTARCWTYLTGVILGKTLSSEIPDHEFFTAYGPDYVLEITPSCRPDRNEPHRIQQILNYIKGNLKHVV
Measurement label: IC50

INPUT: If you can, please state the reported IC50 value of CC(C)(C)c1ccc(CN(C(=O)CN(Cc2c(F)c(F)c(F)c(F)c2F)S(=O)(=O)c2ccc(F)cc2)c2ccc(C(=O)NO)cc2)cc1 .
OUTPUT: 1100 nM

Where do the numbers come from? From paper PMC7190078.
